Each record here notes measured pIC50.
# Tested on: Wild-type HIVLAI
# Method notes: Drug susceptibility assay in P4/R5 cells, recombinant virus
# Format: cell-based, HIV-1
# Details: Human immunodeficiency virus 1, P4/R5
pIC50 here is simply -log10 of the concentration when that concentration is written in mol/L.

// worked examples, pIC50 included
                         structure_notation  test_result
0    O=c1[nH]cnc2c1ncn2[C@H]1CC[C@@H](CO)O1         5.38
1       Nc1ccn([C@@H]2CS[C@H](CO)O2)c(=O)n1         6.30
2  Nc1nc(NC2CC2)c2ncn([C@H]3C=C[C@@H](CO)C3)c2n1         5.19

Query: Can you share its pIC50? I mean this compound: Cc1cn([C@H]2C=C[C@@H](CO)O2)c(=O)[nH]c1=O
Reply: 5.14

====

# Tested on: HIVLAI RT D67N/K70R/A371V/Q509L
# Method notes: Drug susceptibility assay in P4/R5 cells, site-directed mutant
# Type: cell-based, HIV-1
# Details: D67N/K70R/A371V/Q509L; mean ± SD
Reported property: pIC50
// pIC50: -log10(molar conc.)

Query: # get_value(readout='pIC50', item= C[C@H](Cn1cnc2c(N)ncnc21)OCP(=O)(O)O )
Reply: 5.14

====

# Tested on: HIVLAI containing the M41L/L210W/T215Y mutations (AZT^R HIVLAI) passaged in increasing concentrations of AZT
# Method notes: AZT susceptibility of virus passaged in increasing AZT, selection starting with AZT^R HIVLAI; single-cycle assay in P4/R5 cells
# Type: cell-based, HIV-1
# Details: Human immunodeficiency virus 1, P4/R5, passage 30; AZT concentration 150 μM; M41L, D67D/N, L210W, L214F, T215Y
Reported property: IC50 (µM)
Reply with just the number (in µM).

Query: Give the measured IC50 of Cc1cn([C@H]2C[C@H](N=[N+]=[N-])[C@@H](CO)O2)c(=O)[nH]c1=O .
Reply: 181

====

# Tested on: HIVLAI RT 67N/70R/215F/371V
# Method notes: Drug susceptibility assay in P4/R5 cells, site-directed mutant
# Type: cell-based, HIV-1
# Details: Human immunodeficiency virus 1, P4/R5; 67N/70R/215F/371V; mean ± SD
# Experimental: Drug susceptibility assays. NRTI susceptibility was determined in P4/R5 cells as described previously (Parikh, U. M., et al. 2005. Antimicrob. Agents Chemother. 49:1139-44). […] After 48 hours, the cells were lysed (Gal-Screen; Tropix/Applied Biosystems, Foster City, Calif.) and the RLU was measured using a ThermoLabSystems luminometer (Waltham, Mass.). The IC50 and fold-resistance were calculated as described above. […]
Reported property: pIC50
# reply with the number alone; pIC50 is -log10 of concentration in mol/L

Query: // pIC50 lookup, key: Cc1cn([C@H]2C[C@H](N=[N+]=[N-])[C@@H](CO)O2)c(=O)[nH]c1=O [AZT, 3′-azido-3′-dideoxythymidine]
Reply: 5.31

====

# Test system: wild-type HIV-1LAI passaged in MT-2 cells in increasing concentrations of AZT
# Method notes: AZT susceptibility of virus passaged in increasing AZT, selection starting with wild-type HIV-1LAI; single-cycle assay in P4/R5 cells
# Format: cell-based
# Details: Human immunodeficiency virus 1, MT2, passage 10; AZT concentration 0.5 μM; read-out: IC50
Reported property: IC50 (nM)
Give a bare numeral; the unit nM is implied.

Query: Lab request: please report IC50 under test system wild-type HIV-1LAI passaged in MT-2 cells in increasing concentrations of AZT for Cc1cn([C@H]2C[C@H](N=[N+]=[N-])[C@@H](CO)O2)c(=O)[nH]c1=O
Reply: 300

====

Fold-Resistance values, listed per item
# Tested on: HIVLAI RT D67N/K70R/T215F
# Method notes: Drug susceptibility assay in P4/R5 cells, site-directed mutant
# Format: cell-based, HIV-1
# Details: D67N/K70R/T215F compared to wild-type
Kindly provide the numeric value in fold only, without the unit symbol.

>>> df
                     structure_notation  readout_unit  test_result
0  C[C@H](Cn1cnc2c(N)ncnc21)OCP(=O)(O)O          fold          1.5

Query: # Fold-Resistance lookup, item Nc1ccn([C@@H]2CS[C@H](CO)O2)c(=O)n1
Reply: 7.0

Query: For the compound shown here, Cc1cn([C@H]2C=C[C@@H](CO)O2)c(=O)[nH]c1=O , give the reported Fold-Resistance.
Reply: 2.4

Query: Which Fold-Resistance reading was recorded for the compound Nc1nc(NC2CC2)c2ncn([C@H]3C=C[C@@H](CO)C3)c2n1 ?
Reply: 2.4

Query: Entry O=c1[nH]cnc2c1ncn2[C@H]1CC[C@@H](CO)O1 : reported Fold-Resistance = ?
Reply: 1.6

====

# System: wild-type HIV-1LAI passaged in MT-2 cells in increasing concentrations of AZT
# Method notes: AZT susceptibility of virus passaged in increasing AZT, selection starting with wild-type HIV-1LAI; single-cycle assay in P4/R5 cells
# Type: cell-based
# Details: Human immunodeficiency virus 1, MT2, passage 1; AZT concentration 0.5 μM; read-out: IC50
Reported property: IC50 (nM)
Give just the numeric value; nM need not be written.

Query: Item Cc1cn([C@H]2C[C@H](N=[N+]=[N-])[C@@H](CO)O2)c(=O)[nH]c1=O has what recorded IC50?
Reply: 200

====

# System: HIVLAI containing the M41L/L210W/T215Y mutations (AZT^R HIVLAI) passaged in increasing concentrations of AZT
# Method notes: AZT susceptibility of virus passaged in increasing AZT, selection starting with AZT^R HIVLAI; single-cycle assay in P4/R5 cells
# Format: cell-based, HIV-1
# Details: Human immunodeficiency virus 1, P4/R5, passage 1; AZT concentration 25 μM
# Protocol: Selection of AZT-resistant viruses. Resistant virus was selected in two independent experiments by the passage of wild-type HIVLAI or HIVLAI containing the M41L/L210W/T215Y mutations (AZT^R HIVLAI) in MT-2 cells in increasing concentrations of AZT. […] Viral replication was monitored by CPE. […] The genotype of the passaged virus was determined as described above. Drug susceptibility assays. […] The IC50 and fold-resistance were calculated as described above. […]
Reported property: IC50 (µM)
Response body: numeric value in µM, unit text excluded.

Query: For the molecule shown here, Cc1cn([C@H]2C[C@H](N=[N+]=[N-])[C@@H](CO)O2)c(=O)[nH]c1=O , give the reported IC50.
Reply: 21

====

Fold-Resistance values, listed per item
# Test system: HIVLAI RT D67N/K70R/A371V/Q509L
# Method notes: Drug susceptibility assay in P4/R5 cells, site-directed mutant
# Assay type: cell-based, HIV-1
# Details: D67N/K70R/A371V/Q509L compared to wild-type

Query: What Fold-Resistance value was documented for this compound, O=c1[nH]cnc2c1ncn2[C@H]1CC[C@@H](CO)O1 ?
Reply: 1.2 fold

====

# Tested on: HIVLAI RT D67N/K70R/T215F
# Method notes: Drug susceptibility assay in P4/R5 cells, site-directed mutant
# Assay type: cell-based, HIV-1
# Details: D67N/K70R/T215F; mean ± SD
Reported property: pIC50
Please note pIC50 is a logarithmic value: minus log10 of concentration in mol/L. Answer with that number alone.

Query: Bench note: what pIC50 did C[C@H](Cn1cnc2c(N)ncnc21)OCP(=O)(O)O show?
Reply: 5.31

====

# System: HIVLAI RT D67N/K70R/T215I/A371V/Q509L
# Method notes: Drug susceptibility assay in P4/R5 cells, site-directed mutant
# Type: cell-based, HIV-1
# Details: Human immunodeficiency virus 1, P4/R5; 67N/70R/215I/371V/509L; mean ± SD
Reported property: pIC50
pIC50 here: minus log base 10 of the concentration, concentration in moles per litre.

Query: Which pIC50 is reported for this compound? Cc1cn([C@H]2C[C@H](N=[N+]=[N-])[C@@H](CO)O2)c(=O)[nH]c1=O
Reply: 5.03

====

# Test system: HIVLAI RT 67N/70R/215F/509L
# Method notes: Drug susceptibility assay in P4/R5 cells, site-directed mutant
# Format: cell-based, HIV-1
# Details: Human immunodeficiency virus 1, P4/R5; 67N/70R/215F/509L; mean ± SD
Reported property: pIC50
Please treat pIC50 as minus the base-10 logarithm of the molar concentration.

Query: Observed pIC50 on HIVLAI RT 67N/70R/215F/509L for Cc1cn([C@H]2C[C@H](N=[N+]=[N-])[C@@H](CO)O2)c(=O)[nH]c1=O , please.
Reply: 4.55

====

# Test system: wild-type HIV-1LAI passaged in MT-2 cells in increasing concentrations of AZT
# Method notes: AZT susceptibility of virus passaged in increasing AZT, selection starting with wild-type HIV-1LAI; single-cycle assay in P4/R5 cells
# Format: cell-based
# Details: Human immunodeficiency virus 1, MT2, passage 55; AZT concentration 16 μM; D67N, K70R, T215T/I, A371A/V, Q509Q/L; read-out: IC50
Reported property: IC50 (µM)
A number alone suffices; assume µM.

Query: Give wild-type HIV-1LAI passaged in MT-2 cells in increasing concentrations of AZT IC50 for Cc1cn([C@H]2C[C@H](N=[N+]=[N-])[C@@H](CO)O2)c(=O)[nH]c1=O
Reply: 39
